- assay_target: Receptor-interacting serine/threonine-protein kinase 3 (Homo sapiens, UniProt Q9Y572)
- Sequence (Q9Y572 whole entry): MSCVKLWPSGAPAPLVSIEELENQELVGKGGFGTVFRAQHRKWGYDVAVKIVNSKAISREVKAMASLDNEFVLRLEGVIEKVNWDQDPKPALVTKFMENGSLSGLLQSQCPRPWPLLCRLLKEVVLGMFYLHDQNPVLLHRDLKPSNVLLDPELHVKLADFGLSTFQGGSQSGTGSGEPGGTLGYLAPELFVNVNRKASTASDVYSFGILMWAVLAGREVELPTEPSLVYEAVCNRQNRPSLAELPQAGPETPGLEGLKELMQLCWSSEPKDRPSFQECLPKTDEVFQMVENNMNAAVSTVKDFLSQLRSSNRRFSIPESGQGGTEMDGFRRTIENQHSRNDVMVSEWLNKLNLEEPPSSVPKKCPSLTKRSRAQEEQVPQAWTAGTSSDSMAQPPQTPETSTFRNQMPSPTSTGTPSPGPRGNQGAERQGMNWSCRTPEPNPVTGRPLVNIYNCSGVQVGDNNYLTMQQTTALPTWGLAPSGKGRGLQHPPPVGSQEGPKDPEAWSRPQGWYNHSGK
- test_protocol: Binding affinity to RIPK3 (unknown origin)
property_name: pKd
Hey, just a heads up that pKd is the negative log base 10 of the concentration in molar.

Fill in the blank: the reported pKd of CN1C(=O)[C@@H](NC(=O)c2cc3cccc(-c4ccccc4)c3[nH]2)COc2ccccc21 is ____.
5.62
